Measured values drawn from patent US8642541B2 for this set.

SYSTEM NAME: human Glucagon-R (Homo sapiens, UniProt P47871)
Construct: expressed in transfected cells
Sequence (P47871 26-477): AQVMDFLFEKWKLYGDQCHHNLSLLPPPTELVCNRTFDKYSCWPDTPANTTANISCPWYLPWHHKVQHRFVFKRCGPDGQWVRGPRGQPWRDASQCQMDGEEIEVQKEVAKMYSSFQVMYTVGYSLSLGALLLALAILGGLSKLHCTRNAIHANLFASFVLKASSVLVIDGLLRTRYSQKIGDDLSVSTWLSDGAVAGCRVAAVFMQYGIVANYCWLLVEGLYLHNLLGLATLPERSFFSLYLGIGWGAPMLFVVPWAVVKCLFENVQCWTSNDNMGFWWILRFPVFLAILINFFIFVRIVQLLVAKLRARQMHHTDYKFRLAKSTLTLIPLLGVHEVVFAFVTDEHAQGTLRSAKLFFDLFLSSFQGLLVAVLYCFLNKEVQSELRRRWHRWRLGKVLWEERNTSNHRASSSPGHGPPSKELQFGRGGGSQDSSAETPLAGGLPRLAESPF
ASSAY TEXT: Glucagon receptor efficacy assay (cAMP, HEK293 cells)
Assay type: cell-based
RECORDED CONDITIONS: read-out: GLUR EC50
VALUE TYPE: EC50

Data request: For H-HSQGTFTSDYSLYLDSRRAKDFIEWLERA-NH2 [Compound L006-0050] , what is its reported EC50?
Data returned: 0.1 nM
